As an illustration, consider measured pIC50 for compounds on Neuraminidase (Influenza B virus (strain B/Lee/1940), UniProt P03474).
Sequence (P03474 whole entry): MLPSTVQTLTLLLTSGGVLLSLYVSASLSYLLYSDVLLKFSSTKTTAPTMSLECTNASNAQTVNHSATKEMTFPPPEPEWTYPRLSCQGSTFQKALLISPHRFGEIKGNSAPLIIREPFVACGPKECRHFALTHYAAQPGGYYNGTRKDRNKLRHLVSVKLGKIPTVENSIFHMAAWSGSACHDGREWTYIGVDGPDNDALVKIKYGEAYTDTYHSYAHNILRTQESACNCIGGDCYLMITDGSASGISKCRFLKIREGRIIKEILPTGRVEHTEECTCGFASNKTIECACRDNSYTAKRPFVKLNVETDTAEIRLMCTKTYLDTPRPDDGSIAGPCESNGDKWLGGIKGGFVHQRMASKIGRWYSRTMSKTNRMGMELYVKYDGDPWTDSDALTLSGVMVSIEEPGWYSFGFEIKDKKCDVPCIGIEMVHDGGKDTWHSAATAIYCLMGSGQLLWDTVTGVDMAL
Would you please state pIC50, meaning minus log10 of the concentration in mol/L, as a bare number?

compound	readout number
CCCCC(CC)NC(=O)C(NC(C)=O)[C@H]1CC(C(=O)O)C[C@@H]1N=C(N)N (stereo not given in full)	4.80
CCCCN(C)C(=O)C(NC(C)=O)[C@H]1CC(C(=O)O)C[C@@H]1N=C(N)N (stereo not given in full)	4.74
CCN(CC)C(=O)C(NC(C)=O)[C@H]1C[C@@H](C(=O)O)C[C@@H]1N=C(N)N (stereo not given in full)	5.82
CC(=O)NC(C(=O)NC(C)CC(C)C)[C@H]1CC(C(=O)O)C[C@@H]1N=C(N)N (stereo not given in full)	4.94

Task item: Hello, please tell me recorded pIC50 for this one: CCCC1CCCCN1C(=O)C(NC(C)=O)[C@H]1CC(C(=O)O)C[C@@H]1N=C(N)N (stereo not given in full)
Reply: 4.84

Task item: Fill in reported pIC50 for this entry: CC(=O)NC(C(=O)N(C)CCc1ccccc1)[C@H]1CC(C(=O)O)C[C@@H]1N=C(N)N (stereo not given in full)
Reply: 4.57

Task item: Please look at this compound and report its pIC50: CC(=O)NC(C(=O)N1CCC1)[C@H]1CC(C(=O)O)C[C@@H]1N=C(N)N (stereo not given in full)
Reply: 5.08

* * *

measurement target: Neuraminidase (Influenza A virus (A/Puerto Rico/8/1934(H1N1)))
Sequence (P03468 whole entry): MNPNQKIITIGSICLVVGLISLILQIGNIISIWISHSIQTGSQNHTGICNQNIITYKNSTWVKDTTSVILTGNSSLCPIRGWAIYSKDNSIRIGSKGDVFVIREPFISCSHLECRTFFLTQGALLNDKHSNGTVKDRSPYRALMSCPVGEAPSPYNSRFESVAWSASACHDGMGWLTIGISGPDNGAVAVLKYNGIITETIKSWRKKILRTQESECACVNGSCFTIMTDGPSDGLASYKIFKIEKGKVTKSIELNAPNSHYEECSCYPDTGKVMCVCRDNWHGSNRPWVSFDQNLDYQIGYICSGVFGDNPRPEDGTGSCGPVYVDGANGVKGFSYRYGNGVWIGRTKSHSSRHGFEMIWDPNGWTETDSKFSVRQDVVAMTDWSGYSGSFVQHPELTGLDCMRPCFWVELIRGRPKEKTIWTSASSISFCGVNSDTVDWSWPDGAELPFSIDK
Quick reference: IC50 of the listed items.
Give your result in µM as a bare value.

compound	measurement target	IC50 / µM
CC(=O)NC(C(=O)O)[C@@H]1CCC(=C2SCCCS2)C1 (mixture of isomers; form 1)	Neuraminidase (Influenza A virus (A/Puerto Rico/8/1934(H1N1)))	0.007
CCCN(CCC)C(=O)C(NC(C)=O)[C@H]1C[C@](O)(C(=O)O)C[C@@H]1N=C(N)N (stereo in doubt)	Neuraminidase (Influenza A virus (A/Puerto Rico/8/1934(H1N1)))	4.9
CCCN(CCC)C(=O)C(NC(C)=O)[C@H]1C[C@@](O)(C(=O)O)C[C@@H]1N=C(N)N (some centres undefined)	Neuraminidase (Influenza A virus (A/Puerto Rico/8/1934(H1N1)))	0.47

Task item: With Neuraminidase (Influenza A virus (A/Puerto Rico/8/1934(H1N1))) as the test system, provide measured IC50 for this compound: CCCN(CCC)C(=O)C(NC(C)=O)[C@H]1C[C@](O)(C(=O)O)C[C@@H]1N=C(N)N (mixture of isomers)
Reply: 2300

Task item: Report the value of IC50 obtained on Neuraminidase (Influenza A virus (A/Puerto Rico/8/1934(H1N1))) for CC(=O)NC(C(=O)O)[C@@H]1CCC(=C2SCCCS2)C1 (single isomer, unassigned) .
Reply: 0.043

Task item: Give IC50 only, for CC(=O)NC(C(=O)O)[C@@H]1CCC(=C2SCCCS2)C1 (stereo in doubt) , using Neuraminidase (Influenza A virus (A/Puerto Rico/8/1934(H1N1))) data.
Reply: 25

Task item: Print Neuraminidase (Influenza A virus (A/Puerto Rico/8/1934(H1N1))) IC50 for CC(=O)NC(C(=O)O)[C@@H]1CCC(=C2SCCCS2)C1 (mixture of isomers; form 2) .
Reply: 0.06

Task item: Fill: IC50 (Neuraminidase (Influenza A virus (A/Puerto Rico/8/1934(H1N1)))) for this compound CCN(CC)C(=O)C(NC(C)=O)[C@H]1C[C@@](O)(C(=O)O)C[C@@H]1N=C(N)N (some centres undefined)
Reply: 1.6

Task item: Param request: IC50 | system Neuraminidase (Influenza A virus (A/Puerto Rico/8/1934(H1N1))) | item CCN(CC)C(=O)C(NC(C)=O)[C@H]1C[C@@H](C(=O)O)C[C@@H]1N=C(N)N (some centres undefined)
Reply: 0.007

* * *

measurement target: Neuraminidase (Influenza B virus (strain B/Lee/1940), UniProt P03474)
measured attribute: IC50 (µM)
Return type: number; implicit unit µM.

compound	measurement target	measured attribute	readout number
CCCC(C)NC(=O)C(NC(C)=O)[C@H]1CC(C(=O)O)C[C@@H]1N=C(N)N (some centres undefined)	Neuraminidase (Influenza B virus (strain B/Lee/1940), UniProt P03474)	IC50	12.2

Task item: State, for Neuraminidase (Influenza B virus (strain B/Lee/1940), UniProt P03474), measured IC50 of the compound listed here: CCNC(=O)C(NC(C)=O)[C@H]1CC(C(=O)O)C[C@@H]1N=C(N)N (some centres undefined)
Reply: 3.1

Task item: State recorded IC50 with Neuraminidase (Influenza B virus (strain B/Lee/1940), UniProt P03474), entry CCC(COC)NC(=O)C(NC(C)=O)[C@H]1CC(C(=O)O)C[C@@H]1N=C(N)N (some centres undefined) , no comment.
Reply: 20

* * *

measurement target: Neuraminidase (Influenza B virus (strain B/Lee/1940), UniProt P03474)
Label y when IC50 < 20 µM; otherwise n.

molecule	class
CCN(CCO)C(=O)C(NC(C)=O)[C@H]1CC(C(=O)O)C[C@@H]1N=C(N)N (stereo partly drawn)	n

Task item: Hello, I'm reviewing records and need to know if IC50 of CC(=O)NC(C(=O)NC(C)C)[C@H]1CC(C(=O)O)C[C@@H]1N=C(N)N (stereo partly drawn) is below 20 µM. Could you check?
Reply: y

Task item: # check: IC50 < 20 µM for CCCCCCN(C)C(=O)C(NC(C)=O)[C@H]1CC(C(=O)O)C[C@@H]1N=C(N)N (stereo partly drawn)
Reply: n

* * *

In this section, each of the molecules is paired with its reported IC50.
measurement target: Neuraminidase (Influenza B virus (strain B/Lee/1940), UniProt P03474)
The reply should contain only the number, in µM.

Below, each entry is followed by its recorded IC50 result.
molecule	measurement units	IC50
CC(=O)NC(C(=O)N1CCCCCC1)[C@H]1CC(C(=O)O)C[C@@H]1N=C(N)N (stereo partly specified)	µM	25.3
CC(=O)NC(C(=O)N1CCCC1)[C@H]1CC(C(=O)O)C[C@@H]1N=C(N)N (stereo partly specified)	µM	24
CC(=O)NC(C(=O)N1CCSCC1)[C@H]1CC(C(=O)O)C[C@@H]1N=C(N)N (stereo partly specified)	µM	29.1
CCCN(CCC)C(=O)C(NC(C)=O)[C@H]1C[C@](O)(C(=O)O)C[C@@H]1N=C(N)N (stereo in doubt)	µM	33

Now consider a different molecule.
Task item: Return reported IC50 for target or system Neuraminidase (Influenza B virus (strain B/Lee/1940), UniProt P03474), item CC(=O)NC(C(=O)N1CCOCC1)[C@H]1CC(C(=O)O)C[C@@H]1N=C(N)N (stereo partly specified) .
Reply: 7.8

* * *

For Neuraminidase (Influenza B virus (strain B/Lee/1940)), measured IC50 is reported for the entries below.
Answer in µM, number only, no unit symbol.

A selection of reference data follows.
compound	IC50 (µM)
C=CCN(C)C(=O)C(NC(C)=O)[C@H]1CC(C(=O)O)C[C@@H]1N=C(N)N (stereo not given in full)	11.7
CCCN(CC1CC1)C(=O)C(NC(C)=O)[C@H]1CC(C(=O)O)C[C@@H]1N=C(N)N (stereo not given in full)	24
COCC(C)NC(=O)C(NC(C)=O)[C@H]1CC(C(=O)O)C[C@@H]1N=C(N)N (stereo not given in full)	25.1

Task item: // Input: CCC(C)NC(=O)C(NC(C)=O)[C@H]1CC(C(=O)O)C[C@@H]1N=C(N)N (stereo not given in full) . Output its IC50 only.
Reply: 16.5

Task item: Give the value of IC50 reported for the following: CCC(CC)NC(=O)C(NC(C)=O)[C@H]1CC(C(=O)O)C[C@@H]1N=C(N)N (stereo not given in full)
Reply: 3
